Tested on: yeast-induced fever in rats
Experiment: yeast-induced fever in rats (antipyretic activity)
Type: in vivo, male Wistar strain rats
Details: po; rat, p.o., 100 mg/kg, 5 hours after administration; read-out: Inhibition (fever), 5 hours
METRIC_NAME: inhibition in vivo at 100 mg/kg (%)
The response must be a number in % with no trailing unit.

Provide the documented inhibition in vivo at 100 mg/kg with yeast-induced fever in rats as the system for "CC(C)(C)c1cc(C=C(CCO)C(=O)O)cc(C(C)(C)C)c1O" 70.3

Now this one: "COC(=O)C(=Cc1cc(C(C)(C)C)c(O)c(C(C)(C)C)c1)CCO" 59.7

Continue with "CC(C)(C)c1cc(C=CC(=O)c2ccccc2)cc(C(C)(C)C)c1O" 21.4

Same question for "CC(C)(C)c1cc(C=C(C#N)C(N)=O)cc(C(C)(C)C)c1O" please. 87

Now the molecule "CCOC(=O)C(=Cc1cc(C(C)(C)C)c(O)c(C(C)(C)C)c1)C(C)=O" 41.6

Query "CC(C)(C)c1cc(C=CC(N)=O)cc(C(C)(C)C)c1O" next 16.9

Same lookup for "CC(=O)C(C)=Cc1cc(C(C)(C)C)c(O)c(C(C)(C)C)c1" , please. 41.6

Record: "CCC(=Cc1cc(C(C)(C)C)c(O)c(C(C)(C)C)c1)C(=O)O" 19.5

Try "CC(=O)C=Cc1cc(C(C)(C)C)c(O)c(C(C)(C)C)c1" next. 64.9

Now give it for "CC(C)(C)c1cc(C=C[N+](=O)[O-])cc(C(C)(C)C)c1O" too. 23.4

* * *

Exercise: state measured inhibition in vivo at 50 mg/kg for each of the molecules provided.
Tested on: carrageenan-induced paw edema in rats
Test: carrageenan-induced paw edema in rats (acute anti-inflammatory activity)
Format: in vivo, male Wistar strain rats
Conditions: po; rat, p.o., 50 mg/kg, 5 hours after carrageenan; read-out: Percent edema inhibition, 5 hours
Provide only the numeric value, understood in %.

Need inhibition in vivo at 50 mg/kg, item "CC(C)(C)c1cc(C=C(C#N)S(C)(=O)=O)cc(C(C)(C)C)c1O" 18.3

Please answer likewise for "CC(C)(C)c1cc(C=CC(N)=O)cc(C(C)(C)C)c1O" 14.6

Repeat for the following molecule: "CCC(=Cc1cc(C(C)(C)C)c(O)c(C(C)(C)C)c1)C(=O)O" 18.3

Another molecule to check: "CC(C)(C)c1cc(C=C[N+](=O)[O-])cc(C(C)(C)C)c1O" 17.3

And then "CC(=O)C(C)=Cc1cc(C(C)(C)C)c(O)c(C(C)(C)C)c1" , what is it? 20.7

"COC(=O)C(=Cc1cc(C(C)(C)C)c(O)c(C(C)(C)C)c1)CCO" , same question. 41.7

Now the molecule "CC(C)(C)c1cc(C=C(CCO)C(=O)O)cc(C(C)(C)C)c1O" 41.6

What about this molecule? "CC(C)(C)c1cc(C=C(C#N)C(N)=O)cc(C(C)(C)C)c1O" 34.2

// same read-out, input: "CCOC(=O)C(=Cc1cc(C(C)(C)C)c(O)c(C(C)(C)C)c1)C(C)=O" 28.4

Then this molecule: "CC(=O)C=Cc1cc(C(C)(C)C)c(O)c(C(C)(C)C)c1" 50

Request: "CC(C)(C)c1cc(C=CC(=O)c2ccccc2)cc(C(C)(C)C)c1O" 19.7
